Subject of test: KMO mouse enzyme (Mus musculus, UniProt Q91WN4)
Construct: KMO enzyme prepared at Evotec from mouse liver (4-6 weeks old) via mitochondria isolation; from tissue; host or cells: mouse liver (4-6 weeks old), mitochondria isolation, prepared at Evotec
Sequence (Q91WN4 whole entry): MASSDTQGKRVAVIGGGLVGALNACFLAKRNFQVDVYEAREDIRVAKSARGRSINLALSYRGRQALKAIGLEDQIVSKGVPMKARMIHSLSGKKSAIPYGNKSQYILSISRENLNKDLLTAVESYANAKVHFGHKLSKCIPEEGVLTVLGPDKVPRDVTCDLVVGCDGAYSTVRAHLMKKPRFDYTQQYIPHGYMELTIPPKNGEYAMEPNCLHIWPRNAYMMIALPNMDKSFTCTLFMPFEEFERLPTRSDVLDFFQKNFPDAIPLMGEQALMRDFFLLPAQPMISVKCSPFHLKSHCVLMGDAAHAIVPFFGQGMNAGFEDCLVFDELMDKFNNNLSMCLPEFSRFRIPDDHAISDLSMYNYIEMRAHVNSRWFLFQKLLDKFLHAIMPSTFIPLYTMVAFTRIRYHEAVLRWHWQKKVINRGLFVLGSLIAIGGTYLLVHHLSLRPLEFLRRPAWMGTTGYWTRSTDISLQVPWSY
Protocol summary: KMO mouse enzyme assay: L-Kynurenine hydroxylation to 3-Hydroxy-Kynurenine monitored by LC/MS (MRM)
Format: biochemical
Particulars: compound at 10 μM; KMO enzyme from mouse liver mitochondria; read-out: INH.Mouse @ 10 μM
The compounds listed here are annotated with their inhibition at 10 µM.
// note: answer is a bare numeric in %

Some entries whose results are on file:
substance_smiles=COC(=O)c1cc(-c2ccc(F)c(C(F)(F)F)c2)ncn1 subject_of_test="KMO mouse enzyme (Mus musculus, UniProt Q91WN4)" parameter="inhibition at 10 µM" result_number=92.7
substance_smiles=O=C(Nc1cccnn1)c1cc(-c2cccc(Cl)c2)ncn1 subject_of_test="KMO mouse enzyme (Mus musculus, UniProt Q91WN4)" parameter="inhibition at 10 µM" result_number=100
substance_smiles=CN(C(=O)c1cc(-c2cccc(Cl)c2)ncn1)c1ccc2c(c1)OC(F)(F)O2 subject_of_test="KMO mouse enzyme (Mus musculus, UniProt Q91WN4)" parameter="inhibition at 10 µM" result_number=98.7
substance_smiles=O=C(Nc1ccc(N2CCOCC2)cc1)c1cc(-c2cccc(Cl)c2)ncn1 subject_of_test="KMO mouse enzyme (Mus musculus, UniProt Q91WN4)" parameter="inhibition at 10 µM" result_number=93.6
substance_smiles=Cc1ccc(NC(=O)c2cc(-c3ccc(Cl)c(Cl)c3)ncn2)cn1 subject_of_test="KMO mouse enzyme (Mus musculus, UniProt Q91WN4)" parameter="inhibition at 10 µM" result_number=100

Annotate the compound "O=C(Nc1cncnc1)c1cc(-c2ccc(Cl)c(Cl)c2)ncn1" with its measured inhibition at 10 µM.
95.5

Annotate the compound "CS(=O)(=O)NC(=O)c1cc(-c2cccc(Cl)c2)ncn1" with its measured inhibition at 10 µM.
99.5

Annotate the compound "O=C(c1cc(-c2cccc(Cl)c2)ncn1)N1CCc2cnccc21" with its measured inhibition at 10 µM.
100

Annotate the compound "O=C(Nc1ccon1)c1cc(-c2cccc(Cl)c2)ncn1" with its measured inhibition at 10 µM.
100

Annotate the compound "Cc1cc(NC(=O)c2cc(-c3cccc(Cl)c3)ncn2)on1" with its measured inhibition at 10 µM.
100

Annotate the compound "O=C(O)c1cc(-c2cncc(F)c2)ncn1" with its measured inhibition at 10 µM.
96.1

Annotate the compound "O=C(Nc1cnccn1)c1cc(-c2cccc(Cl)c2)ncn1" with its measured inhibition at 10 µM.
100

Annotate the compound "Cc1cc(NC(=O)c2cc(-c3ccc(Cl)c(Cl)c3)ncn2)on1" with its measured inhibition at 10 µM.
100

Annotate the compound "COc1cccc(-c2cc(C(=O)O)ncn2)c1" with its measured inhibition at 10 µM.
81

Annotate the compound "CNC(=O)c1cc(-c2cccc(Cl)c2)ncn1" with its measured inhibition at 10 µM.
100

Annotate the compound "COC(=O)c1cc(-c2cncc(F)c2)ncn1" with its measured inhibition at 10 µM.
87.2

Annotate the compound "O=C(Nc1ccncc1)c1cc(-c2cccc(Cl)c2)ncn1" with its measured inhibition at 10 µM.
100

Annotate the compound "O=C(NCc1ccncc1)c1cc(-c2ccc(Cl)c(Cl)c2)ncn1" with its measured inhibition at 10 µM.
95.5
